The reported numbers originate from ChEMBL document CHEMBL5550109.

Molecular target: Ribonucleoside-diphosphate reductase subunit M2 (Homo sapiens)
Sequence (P31350 whole entry): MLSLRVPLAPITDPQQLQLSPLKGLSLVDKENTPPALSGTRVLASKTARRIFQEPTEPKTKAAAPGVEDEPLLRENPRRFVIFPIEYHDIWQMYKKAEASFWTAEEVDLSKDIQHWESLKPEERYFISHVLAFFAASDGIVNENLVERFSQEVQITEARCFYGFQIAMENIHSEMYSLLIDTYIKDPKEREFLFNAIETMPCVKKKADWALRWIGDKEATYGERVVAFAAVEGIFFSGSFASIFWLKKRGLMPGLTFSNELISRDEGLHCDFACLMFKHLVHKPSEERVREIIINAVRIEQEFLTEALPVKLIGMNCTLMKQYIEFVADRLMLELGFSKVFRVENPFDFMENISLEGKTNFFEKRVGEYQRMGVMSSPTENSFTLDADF
Test: Inhibition of human recombinant RRM2
pIC50: −log10 of the molar value.
testReadout: pIC50

{"molecule": "NC(=O)NO [HYDROXYUREA]", "testReadout": "pIC50", "measuredResult": 3.22}
